Test system: Hippocampus
Protocol text: Antiexcitatory activity in rat hippocampus pyramidal CA1 region assessed as reduction in field excitatory postsynaptic potential at 16 uM by electrophysiologic method
Type: functional
Design: scale not given: the % may be the effect or the level left
Calls of active or inactive are those of the source. The rule behind the calls is not given here.
Quantity kind: Activity

Some compounds with recorded Activity:
[[record]]
compound = "O=C(O)c1cc(=O)c2ccccc2[nH]1 [TRANSTORINE]"
measured_result = "70%"

[[record]]
compound = "CN1CCCCC1CNC(=O)c1cc(=O)c2ccccc2[nH]1 (stereo unspecified)"
measured_result = "inactive"

[[record]]
compound = "CN(C)CCCNC(=O)c1cc(=O)c2ccccc2[nH]1"
measured_result = "inactive"

[[record]]
compound = "O=C(c1cc(=O)c2ccccc2[nH]1)N1CCNCC1"
measured_result = "inactive"

[[record]]
compound = "O=C(NCCN1CCCC1)c1cc(=O)c2ccccc2[nH]1"
measured_result = "inactive"


Consider the record given below.
Requested read-out: Activity. Entry: `O=C(NCCN1CCOCC1)c1cc(=O)c2ccccc2[nH]1`
inactive
